Cited source: ChEMBL document CHEMBL1137115

- subject_of_test: Cyclin-dependent kinase 4/cyclin D1 (Homo sapiens)
- Sequence (P11802 whole entry): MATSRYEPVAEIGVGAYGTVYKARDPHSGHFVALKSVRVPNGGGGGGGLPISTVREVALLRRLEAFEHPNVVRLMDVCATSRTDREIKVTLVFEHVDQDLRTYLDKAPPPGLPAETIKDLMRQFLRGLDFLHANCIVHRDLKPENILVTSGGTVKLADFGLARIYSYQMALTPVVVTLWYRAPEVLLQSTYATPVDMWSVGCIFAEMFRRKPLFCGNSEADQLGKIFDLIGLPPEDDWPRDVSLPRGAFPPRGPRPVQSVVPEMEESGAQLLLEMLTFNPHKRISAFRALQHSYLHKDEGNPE
- Sequence (P24385 whole entry, further chain): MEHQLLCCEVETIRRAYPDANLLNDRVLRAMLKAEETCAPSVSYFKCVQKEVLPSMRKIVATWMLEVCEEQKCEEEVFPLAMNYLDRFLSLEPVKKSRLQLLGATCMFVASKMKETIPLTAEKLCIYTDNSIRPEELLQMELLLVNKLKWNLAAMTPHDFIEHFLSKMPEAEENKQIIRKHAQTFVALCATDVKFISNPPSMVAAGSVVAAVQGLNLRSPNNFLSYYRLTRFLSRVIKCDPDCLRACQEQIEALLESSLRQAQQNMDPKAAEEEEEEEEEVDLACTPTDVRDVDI
- test_name: Inhibition of Cyclin D1-cyclin-dependent kinase 4
# IC50 per record follows

- structure: "CC(C)N1CCn2c3c(cccc3c3c4c(c5c6ccccc6[nH]c5c32)C(=O)NC4=O)C1"
  IC50 (µM): 0.07
- structure: "CS(=O)(=O)N1CCn2c3c(cccc3c3c4c(c5c6ccccc6[nH]c5c32)C(=O)NC4=O)C1"
  IC50 (µM): 0.05
- structure: "O=C1NC(=O)c2c1c1c3ccc(C(F)(F)F)c(CO)c3[nH]c1c1c2c2cccc3c2n1CCNC3"
  IC50 (µM): 0.04
- structure: "O=C1NC(=O)c2c1c1c3cc(F)ccc3[nH]c1c1c2c2cccc3c2n1CCNC3"
  IC50 (µM): 0.03
- structure: "O=C1NC(=O)c2c1c1c3ccccc3[nH]c1c1c2c2cccc3c2n1CCCCNC3"
  IC50 (µM): 0.08
- structure: "O=C1NC(=O)c2c1c1c3ccccc3[nH]c1c1c2c2cccc3c2n1CCNC3"
  IC50 (µM): 0.027
- structure: "Cc1cn(S(=O)(=O)N2CCn3c4c(cccc4c4c5c(c6c7ccccc7[nH]c6c43)C(=O)NC5=O)C2)cn1"
  IC50 (µM): 0.12
- structure: "O=C1NC(=O)c2c1c1c3ccc(C(F)(F)F)cc3[nH]c1c1c2c2cccc3c2n1CCNC3"
  IC50 (µM): 0.06
- structure: "O=C1NC(=O)c2c1c1c3ccc(F)cc3[nH]c1c1c2c2cccc3c2n1CCNC3"
  IC50 (µM): 0.03

----------
- subject_of_test: Cyclin-dependent kinase 2/cyclin E (Homo sapiens)
- test_name: Inhibition of Cyclin E-cyclin-dependent kinase 2

- structure: "CC(C)N1CCn2c3c(cccc3c3c4c(c5c6ccccc6[nH]c5c32)C(=O)NC4=O)C1"
  IC50: "780 nM"
- structure: "O=C1NC(=O)c2c1c1c3ccc(F)cc3[nH]c1c1c2c2cccc3c2n1CCNC3"
  IC50: "10 nM"
- structure: "O=C1NC(=O)c2c1c1c3cc(F)c(F)cc3[nH]c1c1c2c2cccc3c2n1CCNC3"
  IC50: "> 200 nM"
- structure: "O=C1NC(=O)c2c1c1c3ccccc3[nH]c1c1c2c2cccc3c2n1CCCCNC3"
  IC50: "200 nM"
- structure: "CS(=O)(=O)N1CCn2c3c(cccc3c3c4c(c5c6ccccc6[nH]c5c32)C(=O)NC4=O)C1"
  IC50: "> 200 nM"
- structure: "O=C1NC(=O)c2c1c1c3ccccc3[nH]c1c1c2c2cccc3c2n1CCNC3"
  IC50: "30 nM"
- structure: "O=C1NC(=O)c2c1c1c3ccc(C(F)(F)F)cc3[nH]c1c1c2c2cccc3c2n1CCNC3"
  IC50: "210 nM"
- structure: "O=C1NC(=O)c2c1c1c3cc(F)ccc3[nH]c1c1c2c2cccc3c2n1CCNC3"
  IC50: "> 200 nM"

----------
- Test system: HCT-116
- test_name: Antiproliferative activity was tested in human HCT116 (colon) cell line
- Assay type: functional, cell-based
We begin with a simple list: items and their reported log10 IC50.
reported_metric: log10 IC50 (log10 of the value in nM)

- structure: "CS(=O)(=O)N1CCn2c3c(cccc3c3c4c(c5c6ccccc6[nH]c5c32)C(=O)NC4=O)C1"
  log10 IC50: 3.20
- structure: "O=C1NC(=O)c2c1c1c3ccc(C(F)(F)F)cc3[nH]c1c1c2c2cccc3c2n1CCNC3"
  log10 IC50: 2.23
- structure: "O=C1NC(=O)c2c1c1c3ccc(F)cc3[nH]c1c1c2c2cccc3c2n1CCNC3"
  log10 IC50: 2.30
- structure: "O=C1NC(=O)c2c1c1c3cc(F)c(F)cc3[nH]c1c1c2c2cccc3c2n1CCNC3"
  log10 IC50: 2.60
- structure: "O=C1NC(=O)c2c1c1c3ccccc3[nH]c1c1c2c2cccc3c2n1CCNC3"
  log10 IC50: 2.49
- structure: "CC(C)N1CCn2c3c(cccc3c3c4c(c5c6ccccc6[nH]c5c32)C(=O)NC4=O)C1"
  log10 IC50: 2.81
- structure: "O=C1NC(=O)c2c1c1c3cc(F)ccc3[nH]c1c1c2c2cccc3c2n1CCNC3"
  log10 IC50: 2.41
- structure: "O=C1NC(=O)c2c1c1c3ccc(C(F)(F)F)c(CO)c3[nH]c1c1c2c2cccc3c2n1CCNC3"
  log10 IC50: 3.54
- structure: "O=C1NC(=O)c2c1c1c3ccccc3[nH]c1c1c2c2cccc3c2n1CCCCNC3"
  log10 IC50: 1.95

----------
- test_name: Inhibition of Protein kinase A
pIC50: −log10 of the molar value.

- structure: "O=C1NC(=O)c2c1c1c3ccc(C(F)(F)F)cc3[nH]c1c1c2c2cccc3c2n1CCNC3"
  value_modifier: "<"
  pIC50: 5.70
- structure: "Cc1cn(S(=O)(=O)N2CCn3c4c(cccc4c4c5c(c6c7ccccc7[nH]c6c43)C(=O)NC5=O)C2)cn1"
  value_modifier: "<"
  pIC50: 5.70
- structure: "O=C1NC(=O)c2c1c1c3ccccc3[nH]c1c1c2c2cccc3c2n1CCNC3"
  value_modifier: "="
  pIC50: 6.80
- structure: "NCC(=O)N1CCn2c3c(cccc3c3c4c(c5c6ccccc6[nH]c5c32)C(=O)NC4=O)C1"
  value_modifier: "<"
  pIC50: 4.70
- structure: "O=C1NC(=O)c2c1c1c3ccccc3[nH]c1c1c2c2cccc3c2n1CCCCNC3"
  value_modifier: "="
  pIC50: 7.40
